target: HLA-B*27:05; experiment: IEDB peptide-MHC binding, purified MHC/competitive/fluorescence; filed as Kd, often an IC50 or EC50 that approximates it; bounds were set here for any values at or beyond the usual limits of such assays; details: source organism: Zaire ebolavirus
pKd: −log10 of the molar value.

Entry sequence | Measured on | pKd
FRYEFTAPF | HLA-B*27:05 | 6.14

----------
biological target: HLA-B*48:01; experiment: IEDB peptide-MHC binding, purified MHC/direct/fluorescence; filed as Kd, often an IC50 or EC50 that approximates it; bounds were set here for any values at or beyond the usual limits of such assays; settings: source organism: Camelpox virus CMS

Entry sequence | Kd
VSEKYTDMY | ≥ 20 µM
